Tested on: Enterococcus faecium
Test: Antibacterial activity against Vancomycin-resistant Enterococcus […] ATCC 700802 assessed as inhibition of bacterial growth
Assay type: functional
Please provide measured log10 MIC for the entries that follow.
Heads up, the numbers here are log10 of MIC in µg/mL units.

Record `CCC[C@@H]1NC(=O)[C@H](C)NC(=O)[C@H](NC(=O)[C@H](CO)NC(=O)[C@@H](NC(=O)[C@H](NC(=O)[C@@H](CCC(N)=O)NC(=O)[C@H](CCCNC(=N)N)NC(=O)[C@@H](NC(=O)[C@@H](Cc2ccccc2)NC)[C@@H](C)CC)[C@@H](C)CC)[C@@H](C)CC)[C@H](C)OC(=O)[C@H]([C@@H](C)CC)NC1=O` , field log10 MIC: 0.00

Record `CCCC[C@@H]1NC(=O)[C@H](C)NC(=O)[C@H](NC(=O)[C@H](CO)NC(=O)[C@@H](NC(=O)[C@H](NC(=O)[C@@H](CCC(N)=O)NC(=O)[C@H](CO)NC(=O)[C@@H](NC(=O)[C@@H](Cc2ccccc2)NC)[C@@H](C)CC)[C@@H](C)CC)[C@@H](C)CC)[C@H](C)OC(=O)[C@H]([C@@H](C)CC)NC1=O` , field log10 MIC: -0.30

Record `CCC[C@@H]1NC(=O)[C@H](CCCNC(=N)N)NC(=O)[C@H](NC(=O)[C@H](CO)NC(=O)[C@@H](NC(=O)[C@H](NC(=O)[C@@H](CCCNC(=N)N)NC(=O)[C@H](CO)NC(=O)[C@@H](NC(=O)[C@@H](Cc2ccccc2)NC)[C@@H](C)CC)[C@@H](C)CC)[C@@H](C)CC)[C@H](C)OC(=O)[C@H]([C@@H](C)CC)NC1=O` , field log10 MIC: 0.00

Record `CC[C@H](C)[C@H](NC(=O)[C@@H](Cc1ccccc1)NC)C(=O)N[C@@H](CCCNC(=N)N)C(=O)N[C@H](CCCNC(=N)N)C(=O)N[C@@H](C(=O)N[C@H](C(=O)N[C@@H](CO)C(=O)N[C@H]1C(=O)N[C@@H](C)C(=O)N[C@@H](C2CCCCC2)C(=O)N[C@@H]([C@@H](C)CC)C(=O)O[C@H]1C)[C@@H](C)CC)[C@@H](C)CC` , field log10 MIC: 0.30

Record `COc1c(N2C[C@@H]3CCCN[C@@H]3C2)c(F)cc2c(=O)c(C(=O)O)cn(C3CC3)c12` , field log10 MIC: -0.60

Record `CC[C@H](C)[C@H](NC(=O)[C@@H](Cc1ccccc1)NC)C(=O)N[C@@H](CCCNC(=N)N)C(=O)N[C@H](CCCNC(=N)N)C(=O)N[C@@H](C(=O)N[C@H](C(=O)N[C@@H](CO)C(=O)N[C@H]1C(=O)N[C@@H](CCCNC(=N)N)C(=O)N[C@@H](C2CCCCC2)C(=O)N[C@@H]([C@@H](C)CC)C(=O)O[C@H]1C)[C@@H](C)CC)[C@@H](C)CC` , field log10 MIC: 0.60

Record `CC[C@H](C)[C@H](NC(=O)[C@@H](Cc1ccccc1)NC)C(=O)N[C@@H](CO)C(=O)N[C@H](CCCNC(=N)N)C(=O)N[C@@H](C(=O)N[C@H](C(=O)N[C@@H](CO)C(=O)N[C@H]1C(=O)N[C@@H](C)C(=O)N[C@@H](C2CCCCC2)C(=O)N[C@@H]([C@@H](C)CC)C(=O)O[C@H]1C)[C@@H](C)CC)[C@@H](C)CC` , field log10 MIC: -1.20

Record `CC[C@H](C)[C@H](NC(=O)[C@@H](Cc1ccccc1)NC)C(=O)N[C@@H](CCCNC(=N)N)C(=O)N[C@H](CCC(N)=O)C(=O)N[C@@H](C(=O)N[C@H](C(=O)N[C@@H](CO)C(=O)N[C@H]1C(=O)N[C@@H](C)C(=O)N[C@@H](C2CCCCC2)C(=O)N[C@@H]([C@@H](C)CC)C(=O)O[C@H]1C)[C@@H](C)CC)[C@@H](C)CC` , field log10 MIC: -1.20

Record `CC[C@H](C)[C@H](NC(=O)[C@@H](Cc1ccccc1)NC)C(=O)N[C@@H](CO)C(=O)N[C@H](CCCNC(=N)N)C(=O)N[C@@H](C(=O)N[C@H](C(=O)N[C@@H](CO)C(=O)N[C@H]1C(=O)N[C@@H](CCCNC(=N)N)C(=O)N[C@@H](C2CCCCC2)C(=O)N[C@@H]([C@@H](C)CC)C(=O)O[C@H]1C)[C@@H](C)CC)[C@@H](C)CC` , field log10 MIC: 0.00

Record `CC[C@H](C)[C@H](NC(=O)[C@@H](Cc1ccccc1)NC)C(=O)N[C@@H](CO)C(=O)N[C@H](CCC(N)=O)C(=O)N[C@@H](C(=O)N[C@H](C(=O)N[C@@H](CO)C(=O)N[C@H]1C(=O)N[C@@H](C)C(=O)N[C@@H](C2CCCCC2)C(=O)N[C@@H]([C@@H](C)CC)C(=O)O[C@H]1C)[C@@H](C)CC)[C@@H](C)CC` , field log10 MIC: -1.20

Record `CC[C@H](C)[C@H](NC(=O)[C@@H](Cc1ccccc1)NC)C(=O)N[C@@H](CCCNC(=N)N)C(=O)N[C@H](CCC(N)=O)C(=O)N[C@@H](C(=O)N[C@H](C(=O)N[C@@H](CO)C(=O)N[C@H]1C(=O)N[C@@H](CCCNC(=N)N)C(=O)N[C@@H](C2CCCCC2)C(=O)N[C@@H]([C@@H](C)CC)C(=O)O[C@H]1C)[C@@H](C)CC)[C@@H](C)CC` , field log10 MIC: 0.00

Record `CC[C@H](C)[C@H](NC(=O)[C@@H](Cc1ccccc1)NC)C(=O)N[C@@H](CO)C(=O)N[C@H](CCC(N)=O)C(=O)N[C@@H](C(=O)N[C@H](C(=O)N[C@@H](CO)C(=O)N[C@H]1C(=O)N[C@@H](CCCNC(=N)N)C(=O)N[C@@H](C2CCCCC2)C(=O)N[C@@H]([C@@H](C)CC)C(=O)O[C@H]1C)[C@@H](C)CC)[C@@H](C)CC` , field log10 MIC: -0.30

* * *

Tested on: Staphylococcus aureus
Assay: Antibacterial activity against Staphylococcus aureus 4299 assessed as inhibition of bacterial growth
Type: functional
value-type: MIC
Units required after the number.

Record `CCCC[C@@H]1NC(=O)[C@H](C)NC(=O)[C@H](NC(=O)[C@H](CO)NC(=O)[C@@H](NC(=O)[C@H](NC(=O)[C@@H](CCC(N)=O)NC(=O)[C@H](CO)NC(=O)[C@@H](NC(=O)[C@@H](Cc2ccccc2)NC)[C@@H](C)CC)[C@@H](C)CC)[C@@H](C)CC)[C@H](C)OC(=O)[C@H]([C@@H](C)CC)NC1=O` , field MIC: 0.25 µg/mL

Record `CCC[C@@H]1NC(=O)[C@H](CCCNC(=N)N)NC(=O)[C@H](NC(=O)[C@H](CO)NC(=O)[C@@H](NC(=O)[C@H](NC(=O)[C@@H](CCC(N)=O)NC(=O)[C@H](CO)NC(=O)[C@@H](NC(=O)[C@@H](Cc2ccccc2)NC)[C@@H](C)CC)[C@@H](C)CC)[C@@H](C)CC)[C@H](C)OC(=O)[C@H]([C@@H](C)CC)NC1=O` , field MIC: 0.25 µg/mL

Record `CCC[C@@H]1NC(=O)[C@H](CCCNC(=N)N)NC(=O)[C@H](NC(=O)[C@H](CO)NC(=O)[C@@H](NC(=O)[C@H](NC(=O)[C@@H](CCC(N)=O)NC(=O)[C@H](CCCNC(=N)N)NC(=O)[C@@H](NC(=O)[C@@H](Cc2ccccc2)NC)[C@@H](C)CC)[C@@H](C)CC)[C@@H](C)CC)[C@H](C)OC(=O)[C@H]([C@@H](C)CC)NC1=O` , field MIC: 0.25 µg/mL

Record `CC[C@H](C)[C@H](NC(=O)[C@@H](Cc1ccccc1)NC)C(=O)N[C@@H](CO)C(=O)N[C@H](CCCNC(=N)N)C(=O)N[C@@H](C(=O)N[C@H](C(=O)N[C@@H](CO)C(=O)N[C@H]1C(=O)N[C@@H](C)C(=O)N[C@@H](C2CCCCC2)C(=O)N[C@@H]([C@@H](C)CC)C(=O)O[C@H]1C)[C@@H](C)CC)[C@@H](C)CC` , field MIC: 0.063 µg/mL

Record `CC[C@H](C)[C@H](NC(=O)[C@@H](Cc1ccccc1)NC)C(=O)N[C@@H](CO)C(=O)N[C@H](CCCNC(=N)N)C(=O)N[C@@H](C(=O)N[C@H](C(=O)N[C@@H](CO)C(=O)N[C@H]1C(=O)N[C@@H](CCCNC(=N)N)C(=O)N[C@@H](C2CCCCC2)C(=O)N[C@@H]([C@@H](C)CC)C(=O)O[C@H]1C)[C@@H](C)CC)[C@@H](C)CC` , field MIC: 0.5 µg/mL

Record `CC[C@H](C)[C@H](NC(=O)[C@@H](Cc1ccccc1)NC)C(=O)N[C@@H](CO)C(=O)N[C@H](CCC(N)=O)C(=O)N[C@@H](C(=O)N[C@H](C(=O)N[C@@H](CO)C(=O)N[C@H]1C(=O)N[C@@H](CCCNC(=N)N)C(=O)N[C@@H](C2CCCCC2)C(=O)N[C@@H]([C@@H](C)CC)C(=O)O[C@H]1C)[C@@H](C)CC)[C@@H](C)CC` , field MIC: 0.063 µg/mL

Record `CC[C@H](C)[C@H](NC(=O)[C@@H](Cc1ccccc1)NC)C(=O)N[C@@H](CCCNC(=N)N)C(=O)N[C@H](CCC(N)=O)C(=O)N[C@@H](C(=O)N[C@H](C(=O)N[C@@H](CO)C(=O)N[C@H]1C(=O)N[C@@H](CCCNC(=N)N)C(=O)N[C@@H](C2CCCCC2)C(=O)N[C@@H]([C@@H](C)CC)C(=O)O[C@H]1C)[C@@H](C)CC)[C@@H](C)CC` , field MIC: 0.063 µg/mL

Record `CCC[C@@H]1NC(=O)[C@H](C)NC(=O)[C@H](NC(=O)[C@H](CO)NC(=O)[C@@H](NC(=O)[C@H](NC(=O)[C@@H](CCCNC(=N)N)NC(=O)[C@H](CO)NC(=O)[C@@H](NC(=O)[C@@H](Cc2ccccc2)NC)[C@@H](C)CC)[C@@H](C)CC)[C@@H](C)CC)[C@H](C)OC(=O)[C@H]([C@@H](C)CC)NC1=O` , field MIC: 0.063 µg/mL

Record `CC[C@H](C)[C@H](NC(=O)[C@@H](Cc1ccccc1)NC)C(=O)N[C@@H](CO)C(=O)N[C@H](CCC(N)=O)C(=O)N[C@@H](C(=O)N[C@H](C(=O)N[C@@H](CO)C(=O)N[C@H]1C(=O)N[C@@H](C)C(=O)N[C@@H](C2CCCCC2)C(=O)N[C@@H]([C@@H](C)CC)C(=O)O[C@H]1C)[C@@H](C)CC)[C@@H](C)CC` , field MIC: 0.063 µg/mL

Record `CCCCCCCCCC(=O)N[C@@H](Cc1c[nH]c2ccccc12)C(=O)N[C@H](CC(N)=O)C(=O)N[C@@H](CC(=O)O)C(=O)N[C@@H]1C(=O)NCC(=O)N[C@@H](CCCN)C(=O)N[C@@H](CC(=O)O)C(=O)N[C@H](C)C(=O)N[C@@H](CC(=O)O)C(=O)NCC(=O)N[C@H](CO)C(=O)N[C@@H]([C@H](C)CC(=O)O)C(=O)N[C@@H](CC(=O)c2ccccc2N)C(=O)O[C@@H]1C` , field MIC: 0.25 µg/mL

Record `CCC[C@@H]1NC(=O)[C@H](C)NC(=O)[C@H](NC(=O)[C@H](CO)NC(=O)[C@@H](NC(=O)[C@H](NC(=O)[C@@H](CCC(N)=O)NC(=O)[C@H](CCCNC(=N)N)NC(=O)[C@@H](NC(=O)[C@@H](Cc2ccccc2)NC)[C@@H](C)CC)[C@@H](C)CC)[C@@H](C)CC)[C@H](C)OC(=O)[C@H]([C@@H](C)CC)NC1=O` , field MIC: 0.063 µg/mL
